# system.tested: Menin-MLL (Homo sapiens, UniProt O00255)
# Construct: His-Menin (M1-L615 end); purchased BIORTUS BP9210
# Sequence (O00255 1-615 isoform O00255-1): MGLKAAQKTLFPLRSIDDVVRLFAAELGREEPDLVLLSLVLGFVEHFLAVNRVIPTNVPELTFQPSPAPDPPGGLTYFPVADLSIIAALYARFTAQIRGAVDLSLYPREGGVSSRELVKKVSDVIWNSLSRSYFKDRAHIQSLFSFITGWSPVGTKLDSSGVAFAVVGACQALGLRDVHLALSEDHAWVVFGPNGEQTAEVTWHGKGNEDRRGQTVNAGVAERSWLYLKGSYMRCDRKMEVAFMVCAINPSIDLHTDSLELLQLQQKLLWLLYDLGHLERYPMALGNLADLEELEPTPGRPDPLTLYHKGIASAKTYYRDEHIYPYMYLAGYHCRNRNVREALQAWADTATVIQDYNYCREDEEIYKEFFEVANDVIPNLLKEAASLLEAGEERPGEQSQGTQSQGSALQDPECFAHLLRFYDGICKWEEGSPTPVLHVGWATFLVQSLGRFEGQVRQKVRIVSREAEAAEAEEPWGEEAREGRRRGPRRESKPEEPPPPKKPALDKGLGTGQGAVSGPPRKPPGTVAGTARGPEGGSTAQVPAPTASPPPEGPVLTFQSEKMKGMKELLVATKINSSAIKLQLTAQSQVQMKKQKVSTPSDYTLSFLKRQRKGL
# test.details: Inhibitory activity against Menin-MLL binding (fluorescence polarization)
# experimental.context: fluorescence polarization; 150 nM His-Menin, 15 nM FITC-MLL; 25°C for 60 min; read-out: Menin-MLL IC50
Would you kindly list pIC50 for each of these compounds?
Answers are plain numbers, as −log10 of the molar value.

Cc1nc(F)c2c(-c3ccc(F)cc3C(=O)N3[C@H](C)COC[C@H]3C)cc(C3CN(CC4CCN(C(=O)N5CC(F)(F)C5)CC4)C3)cn12 = 8.02

Hi, could you look up pIC50 for each item in my list?
1. CCN(C(=O)c1cc(F)ccc1-c1cc(C2CN(C(C[C@@H]3CN(C(=O)OC(C)(C)C)CCO3)C(C)C)C2)cn2c(C)ncc12)C(C)C (stereo partly drawn)
2. CCN(C(=O)c1cc(F)ccc1-c1cc(CC2CN([C@H](CCCN(C)CCOC)C(C)C)C2)n2c(C)cncc12)C(C)C
3. CC(=O)N1CCN(CCC[C@H](C(C)C)N2CC(c3cc(-c4ccc(F)cc4C(=O)N4CCOC[C@H]4C)c4c(F)nc(C)n4c3)C2)C(C)(C)C1

1: 7.37; 2: 9.00; 3: 8.05

Provide the reported pIC50 of each entry below, same order.
1. COCCN(C)CCCC(C(C)C)N1CC(c2cc(-c3ccc(F)cc3C(=O)N3CCOC[C@H]3C)c3cnn(C)c3c2)C1 (stereo partly drawn)
2. CCN(C(=O)c1cc(F)ccc1-c1cc(C2CN([C@@H](CCCN3CCN(C(C)=O)CC3)C(C)C)C2)cn2c(C)ncc12)C(C)C
3. CCN(C(=O)c1cc(F)ccc1-c1cc(C2CN([C@@H](CN3CCN(CCO)CC3)C(C)C)C2)cc2c1cnn2C)C(C)C
4. COCCN(C)CCCC(C(C)C)N1CC(c2cc(-c3ccc(F)cc3C(=O)N3CCOCC3C)c3cnn(C)c3c2)C1 (stereo not drawn)
5. CNCCCC(C(C)C)N1CC(c2cc(-c3ccc(F)cc3C(=O)N(CC(F)F)C(C)C)c3c(F)nc(C)n3c2)C1 (stereo not drawn)
6. CCN(C(=O)c1cc(F)ccc1-c1cc(N2CCN(C(=O)[C@H]3N[C@@H]4CC[C@H]3C4)CC2)cn2cncc12)C(C)C
7. CCN(C(=O)c1cc(F)ccc1-c1cc(C2CN([C@H](CCCN3CCN(C)CC3)C(C)C)C2)cn2c(C)nnc12)C(C)C

[7.62, 7.38, 6.82, 7.84, 8.26, 7.08, 7.08]

State its pIC50 for this compound: CCN1CCN(CCC[C@H](C(C)C)N2CC(c3cc(-c4ccc(F)cc4C(=O)N4CCOC[C@H]4C)c4cnc(C)n4c3)C2)CC1 8.60
